Tested on: smallflower umbrella sedge
Assay: Test C flooded paddy test
Assay type: in vivo, Cyperus difformis
Settings: 125 g ai/ha, scale 0 to 100 (0 no effect, 100 complete control)
Measured parameter: Sedge, Umbrella plant response rating

1) CCn1nc(C(C)(C)C)cc1C(=O)Nc1cccc(C(=O)N2CC=CC2)c1 :: 70
2) CCNC(=O)c1ccc(F)c(N(C(C)=O)C(=O)c2cc(C(C)(C)C)nn2CC)c1 :: 70
3) CCc1nn(C(C)(C)CC)nc1C(=O)Nc1cccc(C(=O)N(C)C)c1 :: 85
4) CCn1nc(C(C)(C)C)cc1C(=O)Nc1cc(C(=O)N2CCOCC2)ccc1F :: 80
5) CCNC(=O)c1cccc(NC(=O)c2nn(C(C)C)nc2C)c1 :: 50
6) C=CCN(C)C(=O)c1ccnc(NC(=O)c2cc(C(C)(C)C)nn2CC)c1 :: 40
7) CCN(C)C(=O)c1cccc(NC(=O)c2sc(C(C)(C)C)nc2C)c1 :: 0
8) CCC1=NN(C(C)(C)C)CC1C(=O)Nc1cc(C(=O)N(C)CC)ccc1F (racemic) :: 50
9) CCc1nn(C(C)(C)C)cc1C(=O)Nc1cc(C(=O)NC)ccc1F :: 0
10) CCn1nc(C(C)(C)C)cc1C(=O)Nc1cccc(C(=O)NC2CC2)n1 :: 80
11) C#CCN(C)C(=O)c1ccnc(NC(=O)c2cc(C(C)(C)C)nn2CC)c1 :: 70
12) CCN1N=C(C(C)(C)C)CC1C(=O)Nc1cc(C(=O)N2CCCC2)ccc1F (racemic) :: 80
13) Cc1nn(C(C)(C)C)cc1C(=O)Nc1cc(C(=O)N(C)C)ccc1F :: 75
